target: Neutrophil elastase (Homo sapiens) (UniProt P08246); experiment: Second-order rate constant for the inhibition of human leukocyte elastase
Sequence (P08246 whole entry): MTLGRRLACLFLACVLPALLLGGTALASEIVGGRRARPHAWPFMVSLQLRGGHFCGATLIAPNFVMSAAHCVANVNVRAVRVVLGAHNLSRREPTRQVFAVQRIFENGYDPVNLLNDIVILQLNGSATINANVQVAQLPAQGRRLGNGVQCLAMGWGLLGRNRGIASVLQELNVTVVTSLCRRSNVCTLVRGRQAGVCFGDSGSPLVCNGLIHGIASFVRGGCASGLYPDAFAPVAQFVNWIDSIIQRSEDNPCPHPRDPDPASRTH
Tag: Fulfilled if measured second-order inhibition rate constant is not below 40 M⁻¹ s⁻¹, Not fulfilled if it is.

compound: O=C(OCN1C(=O)CC1Sc1nc2ccccc2o1)c1ccccc1 (stereo not given)
cat: Fulfilled
--
compound: CCC1(CC)C(=O)N(COC(=O)NS(=O)(=O)c2ccc(C)cc2)C1S(=O)(=O)c1ccccc1 (stereo not given)
cat: Not fulfilled
--
compound: CO[C@H]1C(=O)N2C(C(=O)O)=C(COC(C)=O)CS(=O)(=O)C12 (stereo not given in full)
cat: Fulfilled

Determine whether measured second-order inhibition rate constant meets or exceeds 40 M⁻¹ s⁻¹ for CCC1(CC)C(=O)N(COC(=O)Nc2ccc(OC)cc2)C1S(=O)(=O)c1ccccc1 (stereo not given)
Fulfilled

# check: second-order inhibition rate constant of CCC1(CC)C(=O)N(COC(=O)c2ccccc2)C1Sc1nc2ccccc2o1 (stereo not given) is greater than or equal to 40 M⁻¹ s⁻¹
Fulfilled

====

experiment: Half-life in pH 7.4 phosphate buffer at 37 degree C; format: ADME
measurement-label: log10 half-life (log10 of the value in days)
Each number you see is log10 of half-life, and the unit inside the log is days.

Known log10 half-life results, listed for orientation:
molecule: CO[C@H]1C(=O)N2C(C(=O)O)=C(CF)CS(=O)(=O)C12 (stereo partly specified)
measurement-label: log10 half-life
obs-value: -0.10
--
molecule: CCC1(CC)C(=O)N(COC(=O)c2ccccc2)C1S(=O)(=O)c1ccccc1 (stereo unspecified)
measurement-label: log10 half-life
obs-value: 2.10
--
molecule: O=C(OCN1C(=O)CC1S(=O)(=O)c1ccccc1)c1ccccc1 (stereo unspecified)
measurement-label: log10 half-life
obs-value: 1.61

Quick note, log10 half-life for CCC1(CC)C(=O)N(COC(=O)c2ccccc2)C1Sc1nc2ccccc2o1 (stereo unspecified) landed at 1.12

Just so you know, measured log10 half-life for O=C(OCN1CCC1=O)c1ccccc1 came out at -1.27

====

target: Chymotrypsin-like elastase family member 2A (Sus scrofa); experiment: Second-order rate constant for the inhibition of PPE (pancreatic porcine elastase); NI=no inhibition
Calls of active or inactive are those of the source. No cut-off for these calls is given here.
measurement-label: k obs / 1

molecule: O=C(OCN1C(=O)CC1S(=O)(=O)c1ccccc1)c1ccccc1 (stereo not drawn)
measurement-label: k obs / 1
obs-value: inactive
//
molecule: O=C(OCN1CCC1=O)c1ccccc1
measurement-label: k obs / 1
obs-value: inactive
//
molecule: O=C(OCN1C(=O)CC1Sc1nc2ccccc2o1)c1ccccc1 (stereo not drawn)
measurement-label: k obs / 1
obs-value: inactive

====

target: Neutrophil elastase (Homo sapiens) (UniProt P08246); experiment: Second-order rate constant for the inhibition of human leukocyte elastase
Quick reference for second-order inhibition rate constant among some molecules
Write the answer as a number in M⁻¹ s⁻¹, unit excluded.

Use the examples below as a reference point.
molecule: CCC1(CC)C(=O)N(COC(=O)c2ccccc2)C1S(=O)(=O)c1ccccc1 (stereo not given)
second-order inhibition rate constant / M⁻¹ s⁻¹: 67.5
//
molecule: CCC1(CC)C(=O)N(COC(=O)Nc2ccc(C)cc2)C1S(=O)(=O)c1ccccc1 (stereo not given)
second-order inhibition rate constant / M⁻¹ s⁻¹: 60.9
//
molecule: CCC1(CC)C(=O)N(COC(=O)c2ccccc2)C1Sc1ccccc1 (stereo not given)
second-order inhibition rate constant / M⁻¹ s⁻¹: 2.2
//
molecule: CCC1(CC)C(=O)N(COC(=O)Nc2ccccc2)C1S(=O)(=O)c1ccccc1 (stereo not given)
second-order inhibition rate constant / M⁻¹ s⁻¹: 41.9

Next item in the queue.
Field second-order inhibition rate constant (entry O=C(OCN1C(=O)CC1S(=O)(=O)c1ccccc1)c1ccccc1 (stereo not given) ) reads 18.7
